# Method: Cytotoxicity against human HeLa cells assessed as cell viability after 18 hrs by MTT assay in presence of 10 % FCS
# Type: cell-based
# Test Settings: read-out: Activity
Quantity Measured: viability at 18 h (%)
Express the result in % but write the number alone.

Indicate its recorded viability at 18 h; the compound in question is COCc1ccc(C2=Cc3nc2ccc2[nH]c(cc2-c2ccc(C[n+]4ccccc4)cc2)c2nc(ccc4[nH]c3cc4-c3ccc(C[n+]4ccccc4)cc3)C(c3ccc(C[n+]4ccccc4)cc3)=C2)cc1.[Br-].[Br-].[Br-]
100

* * *

# Method: Cytotoxicity against human HeLa cells assessed as cell viability after 18 hrs by MTT assay in presence of 1 % FCS
# Format: cell-based
# Test Settings: read-out: Activity
Quantity Measured: viability at 18 h (%)
Express the result in % but write the number alone.

Indicate its recorded viability at 18 h; the compound in question is COCc1ccc(C2=Cc3nc2ccc2[nH]c(cc2-c2ccc(C[n+]4ccccc4)cc2)c2nc(ccc4[nH]c3cc4-c3ccc(C[n+]4ccccc4)cc3)C(c3ccc(C[n+]4ccccc4)cc3)=C2)cc1.[Br-].[Br-].[Br-]
98.6
